Sourced from ChEMBL document CHEMBL4033760

Molecular target: Transient receptor potential cation channel subfamily A member 1 (Rattus norvegicus)
Experiment: Inhibition of full length rat TRPA1 at a holding potential of 15 mV measured after 1 min by PatchXpress electrophysiology assay
Property label: IC50 (nM)
Numbers only, in nM.

# batch size: 5; output IC50 per entry
1. Fc1ccc(Nc2n[nH]c3cc(OC(F)(F)F)cnc23)cc1F
2. Fc1ccc(Nc2n[nH]c3cc(OC(F)(F)F)cnc23)nc1
3. Fc1ccc2[nH]c(-c3n[nH]c4cc(OC(F)(F)F)cnc34)cc2c1
4. Fc1ccc(-c2n[nH]c3cc(C(F)(F)F)ccc23)cc1F
5. Fc1ccc(Nc2n[nH]c3cc(C(F)(F)F)ccc23)cc1F

1. 11
2. 813
3. 8
4. 329
5. 9

Need IC50 of Fc1ccc(-c2n[nH]c3cc(C(F)(F)F)cnc23)cc1F , thanks.
255

====

Target: Sodium channel protein type 9 subunit alpha (Homo sapiens)
Sequence (Q15858 whole entry): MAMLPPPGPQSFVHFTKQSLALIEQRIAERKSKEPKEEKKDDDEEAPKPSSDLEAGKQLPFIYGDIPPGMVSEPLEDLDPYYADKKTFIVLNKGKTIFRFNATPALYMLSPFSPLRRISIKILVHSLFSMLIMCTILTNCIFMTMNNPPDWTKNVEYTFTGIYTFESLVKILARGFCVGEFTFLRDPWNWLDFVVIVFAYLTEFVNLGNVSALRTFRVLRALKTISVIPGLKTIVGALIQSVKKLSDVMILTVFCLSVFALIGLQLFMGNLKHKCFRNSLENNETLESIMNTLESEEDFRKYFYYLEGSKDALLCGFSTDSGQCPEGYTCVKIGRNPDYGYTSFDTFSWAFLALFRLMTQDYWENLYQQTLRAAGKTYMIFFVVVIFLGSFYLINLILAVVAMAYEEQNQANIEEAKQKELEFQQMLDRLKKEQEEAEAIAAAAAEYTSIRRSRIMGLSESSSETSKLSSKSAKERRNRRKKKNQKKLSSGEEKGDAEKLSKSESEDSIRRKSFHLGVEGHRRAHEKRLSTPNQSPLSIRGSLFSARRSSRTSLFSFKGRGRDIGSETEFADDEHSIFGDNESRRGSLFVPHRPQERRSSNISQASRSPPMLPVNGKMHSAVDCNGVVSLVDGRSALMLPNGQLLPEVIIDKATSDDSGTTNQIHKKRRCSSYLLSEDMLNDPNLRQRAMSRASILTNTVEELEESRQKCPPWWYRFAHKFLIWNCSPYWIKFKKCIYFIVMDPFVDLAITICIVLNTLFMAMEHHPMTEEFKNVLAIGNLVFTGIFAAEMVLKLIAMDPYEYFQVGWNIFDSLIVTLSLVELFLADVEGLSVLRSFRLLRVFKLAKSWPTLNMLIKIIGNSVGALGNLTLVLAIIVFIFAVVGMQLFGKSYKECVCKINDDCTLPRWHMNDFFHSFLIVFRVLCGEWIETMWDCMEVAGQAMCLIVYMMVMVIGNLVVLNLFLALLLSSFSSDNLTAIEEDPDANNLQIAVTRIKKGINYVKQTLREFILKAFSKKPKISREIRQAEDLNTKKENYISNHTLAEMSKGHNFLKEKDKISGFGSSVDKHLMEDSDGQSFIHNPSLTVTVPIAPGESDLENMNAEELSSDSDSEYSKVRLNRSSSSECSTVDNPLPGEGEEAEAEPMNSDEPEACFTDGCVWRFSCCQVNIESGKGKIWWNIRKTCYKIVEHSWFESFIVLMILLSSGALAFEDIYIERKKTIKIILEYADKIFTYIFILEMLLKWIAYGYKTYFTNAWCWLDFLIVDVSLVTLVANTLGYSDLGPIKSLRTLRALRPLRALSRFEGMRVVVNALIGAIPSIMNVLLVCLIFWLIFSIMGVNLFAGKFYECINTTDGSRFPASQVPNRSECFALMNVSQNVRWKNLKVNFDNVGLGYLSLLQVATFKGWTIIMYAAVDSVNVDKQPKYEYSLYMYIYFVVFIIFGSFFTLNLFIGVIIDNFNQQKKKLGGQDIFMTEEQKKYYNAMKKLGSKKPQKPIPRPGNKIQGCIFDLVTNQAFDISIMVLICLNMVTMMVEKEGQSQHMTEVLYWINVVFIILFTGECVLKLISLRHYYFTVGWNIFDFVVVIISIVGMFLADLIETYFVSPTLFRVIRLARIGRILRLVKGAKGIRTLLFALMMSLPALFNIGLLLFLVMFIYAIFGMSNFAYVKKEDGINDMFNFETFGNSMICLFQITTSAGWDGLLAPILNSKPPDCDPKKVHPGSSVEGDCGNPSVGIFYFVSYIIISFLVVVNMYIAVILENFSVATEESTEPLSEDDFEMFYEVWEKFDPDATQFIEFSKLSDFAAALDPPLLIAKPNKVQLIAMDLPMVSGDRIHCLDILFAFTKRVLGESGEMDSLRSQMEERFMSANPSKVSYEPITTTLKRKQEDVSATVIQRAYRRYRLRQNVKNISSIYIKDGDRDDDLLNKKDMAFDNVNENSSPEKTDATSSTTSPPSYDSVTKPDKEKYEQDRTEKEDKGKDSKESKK
Assay: Inhibition of Nav1.7 (unknown origin)
Property label: IC50 (µM)
One number for each entry, in µM.

Fc1ccc(Nc2n[nH]c3cc(OC(F)(F)F)cnc23)cc1F
8.7

Next compound, please.
Requested field: IC50. Item: N#Cc1ccc(-c2n[nH]c3cc(OC(F)(F)F)ccc23)cc1
17.7

====

Test system: Blood
Assay: Drug level in Sprague-Dawley rat blood at 10 to 100 mg/kg, po
Assay type: ADME, organism-based
Details: in vivo, read-out: Drug uptake
Property label: concentration

Data request, read-out concentration, for N#Cc1ccc(-c2n[nH]c3cc(OC(F)(F)F)ccc23)cc1
11 to 52 nM

====

Target: Voltage-gated potassium channel, KQT; KCNQ2(Kv7.2)/KCNQ3(Kv7.3) (Homo sapiens, UniProt O43525+O43526)
Assay: Activation of KCNQ2/3 (unknown origin)
Property label: EC50 (nM)
Numbers only, in nM.

Find the recorded EC50 belonging to FC(F)(F)c1ccc2c(Nc3ccc(Cl)nc3)n[nH]c2c1 and report it.
37

====

Target: Transient receptor potential cation channel subfamily V member 1 (Homo sapiens, UniProt Q8NER1)
Sequence (Q8NER1 whole entry): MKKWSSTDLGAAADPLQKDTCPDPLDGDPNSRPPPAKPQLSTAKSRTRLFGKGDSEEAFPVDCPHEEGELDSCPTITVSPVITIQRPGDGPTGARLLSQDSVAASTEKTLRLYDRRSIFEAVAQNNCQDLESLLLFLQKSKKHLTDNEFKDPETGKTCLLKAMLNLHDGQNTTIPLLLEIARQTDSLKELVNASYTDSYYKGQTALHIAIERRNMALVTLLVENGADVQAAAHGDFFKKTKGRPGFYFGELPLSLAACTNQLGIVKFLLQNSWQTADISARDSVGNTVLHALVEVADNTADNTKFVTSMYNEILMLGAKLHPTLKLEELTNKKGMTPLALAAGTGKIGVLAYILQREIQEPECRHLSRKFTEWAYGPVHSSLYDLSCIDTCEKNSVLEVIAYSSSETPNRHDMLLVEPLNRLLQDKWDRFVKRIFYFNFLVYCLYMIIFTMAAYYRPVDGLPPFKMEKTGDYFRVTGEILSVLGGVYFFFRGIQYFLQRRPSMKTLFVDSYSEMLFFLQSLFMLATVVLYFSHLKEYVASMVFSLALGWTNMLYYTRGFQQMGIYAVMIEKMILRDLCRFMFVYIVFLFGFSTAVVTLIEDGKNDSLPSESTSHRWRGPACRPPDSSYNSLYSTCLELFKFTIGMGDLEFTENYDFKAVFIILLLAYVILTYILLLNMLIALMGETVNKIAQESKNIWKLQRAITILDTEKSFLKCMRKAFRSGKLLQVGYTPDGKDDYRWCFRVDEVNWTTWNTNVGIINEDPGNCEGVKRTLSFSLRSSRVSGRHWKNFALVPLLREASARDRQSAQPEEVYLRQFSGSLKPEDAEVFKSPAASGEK
Record form. Attribute: IC50. Fill in for each entry.

These solved cases illustrate the format of a correct answer.
Fc1ccc(Nc2n[nH]c3cc(OC(F)(F)F)cnc23)cc1F
> 30 µM
FC(F)(F)c1ccc2c(Nc3ccc(Cl)nc3)n[nH]c2c1
> 30 µM

With those in mind, consider the next compound.
Need IC50, item N#Cc1ccc(-c2n[nH]c3cc(OC(F)(F)F)ccc23)cc1
> 30 µM

====

Assay system Voltage-gated inwardly rectifying potassium channel KCNH2 (Homo sapiens, UniProt Q12809); read-out recorded as IC50.

FC(F)(F)c1ccc2c(Nc3ccc(Cl)nc3)n[nH]c2c1
> 100 µM

Any idea what IC50 came out for N#Cc1ccc(-c2n[nH]c3cc(OC(F)(F)F)ccc23)cc1 on Voltage-gated inwardly rectifying potassium channel KCNH2 (Homo sapiens, UniProt Q12809)?
> 30 µM

====

Target: UniProt Q6RI86
Experiment: Inhibition of rat TRPA1 at a holding potential of 15 mV measured after 1 min by whole-cell manual patch clamp electrophysiology assay
Record form. Attribute: pIC50. Fill in for each entry.
Answers are plain numbers, as −log10 of the molar value.

Fc1ccc(Nc2n[nH]c3cc(OC(F)(F)F)cnc23)cc1F
7.96

Give the measured pIC50 of N#Cc1ccc(-c2n[nH]c3cc(OC(F)(F)F)ccc23)cc1 .
6.71

====

Tested on: MDCKII-LE
Test: Permeability in RRCK cells expressing MDR1
Settings: dog
Property label: Papp

Reported Papp for MDCKII-LE, given N#Cc1ccc(-c2n[nH]c3cc(OC(F)(F)F)ccc23)cc1 ?
< 0.1 ×10⁻⁶ cm/s

====

Target: Transient receptor potential cation channel subfamily A member 1 (Rattus norvegicus, UniProt Q6RI86)
Sequence (Q6RI86 whole entry): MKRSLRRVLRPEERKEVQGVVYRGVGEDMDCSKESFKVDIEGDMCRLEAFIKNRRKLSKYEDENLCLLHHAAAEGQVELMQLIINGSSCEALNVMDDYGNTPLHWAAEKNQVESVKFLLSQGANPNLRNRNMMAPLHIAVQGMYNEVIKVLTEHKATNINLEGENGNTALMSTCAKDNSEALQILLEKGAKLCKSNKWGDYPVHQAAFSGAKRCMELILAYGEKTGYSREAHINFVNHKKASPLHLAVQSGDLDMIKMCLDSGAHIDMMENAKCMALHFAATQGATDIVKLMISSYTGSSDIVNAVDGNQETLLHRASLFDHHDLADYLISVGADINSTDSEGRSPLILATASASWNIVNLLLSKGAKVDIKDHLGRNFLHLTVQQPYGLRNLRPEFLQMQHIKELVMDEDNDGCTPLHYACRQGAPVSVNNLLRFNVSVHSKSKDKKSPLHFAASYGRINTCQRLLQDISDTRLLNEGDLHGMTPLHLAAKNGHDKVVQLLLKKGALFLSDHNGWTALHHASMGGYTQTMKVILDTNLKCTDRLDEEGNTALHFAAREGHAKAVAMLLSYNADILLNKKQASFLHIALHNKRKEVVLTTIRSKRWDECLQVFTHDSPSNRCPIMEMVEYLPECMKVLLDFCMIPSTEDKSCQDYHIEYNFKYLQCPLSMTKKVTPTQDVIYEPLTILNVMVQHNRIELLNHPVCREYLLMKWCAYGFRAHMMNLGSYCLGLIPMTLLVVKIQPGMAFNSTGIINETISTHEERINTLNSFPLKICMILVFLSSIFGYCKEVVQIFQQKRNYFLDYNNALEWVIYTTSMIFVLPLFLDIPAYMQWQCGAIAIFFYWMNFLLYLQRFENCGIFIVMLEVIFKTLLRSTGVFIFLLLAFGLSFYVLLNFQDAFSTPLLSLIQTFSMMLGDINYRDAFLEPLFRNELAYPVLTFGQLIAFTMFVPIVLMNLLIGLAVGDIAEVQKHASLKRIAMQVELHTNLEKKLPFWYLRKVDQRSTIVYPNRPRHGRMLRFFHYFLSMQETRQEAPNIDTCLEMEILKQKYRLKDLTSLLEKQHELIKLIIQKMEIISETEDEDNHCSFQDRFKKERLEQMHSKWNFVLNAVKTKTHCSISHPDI
Assay: Inhibition of full length rat TRPA1 at a holding potential of 15 mV measured after 1 min by PatchXpress electrophysiology assay
pIC50: −log10 of the molar value.
Decision: pIC50 compared against 7; not below it gives y, below it gives n.

Use these answered entries as a reference point.
Fc1ccc(-c2n[nH]c3cc(NC4CCN(CC5CC5)CC4)cnc23)cc1
n
COCCNC(=O)c1ccc2c(-c3ccc(C#N)cc3)n[nH]c2c1
n
Fc1ccc(Nc2n[nH]c3cc(C(F)(F)F)cnc23)cc1F
y
N#Cc1ccc(-c2n[nH]c3cc(OC(F)(F)F)ccc23)cc1
n

Quick check: does N#Cc1ccc(-c2n[nH]c3cc(OC(F)(F)F)ccc23)cn1 have pIC50 greater than or equal to 7?
n

Similarly, FC(F)(F)c1ccc2c(Nc3ccc(Cl)cc3)n[nH]c2c1 ?
y

Now the same for Fc1ccc(-c2n[nH]c3cc(OC(F)(F)F)cnc23)cc1
n

Likewise for Fc1ccc(Nc2n[nH]c3cc(Cl)ccc23)cc1F ?
y

====

Molecular target: Sodium channel protein type 5 subunit alpha (Homo sapiens)
Test: Inhibition of Nav1.5 (unknown origin)
Field: pIC50. Provide a value for each of the compounds that follow.
Answers are plain numbers, as −log10 of the molar value.

N#Cc1ccc(-c2n[nH]c3cc(OC(F)(F)F)ccc23)cc1
4.76
Fc1ccc(Nc2n[nH]c3cc(OC(F)(F)F)cnc23)cc1F
4.74

Alright, here's another compound for you.
Which pIC50 is listed for FC(F)(F)c1ccc2c(Nc3ccc(Cl)nc3)n[nH]c2c1 ?
5.07

====

Experiment: Inhibition of full length opossum TRPA1 hS5 chimera at a holding potential of 15 mV measured after 1 min by PatchXpress electrophysiology assay
Design: species or system Monodelphis domestica
Property label: IC50 (nM)
Numbers only, in nM.

Query: IC50; subject: Fc1ccc(Nc2n[nH]c3cc(OC(F)(F)F)cnc23)cc1F
132

====

Provide the reported microsomal CLint of each item.
Experiment: Intrinsic clearance in rat liver microsomes
Type: ADME, microsome
Settings: read-out: CLH
One number for each entry, in µL/min/mg.

Fc1ccc(Nc2n[nH]c3cc(OC(F)(F)F)cnc23)cc1F
99

Alright, here's another compound for you.
Field request: microsomal CLint | item: N#Cc1ccc(-c2n[nH]c3cc(OC(F)(F)F)ccc23)cc1
58

====

Assay: Aqueous solubility of the compound by kinetic miniaturized shakeflask method
Type: physicochemical
Settings: buffer
What solubility kinetic was measured for each of the following?
One number for each entry, in µg/mL.

Fc1ccc(Nc2n[nH]c3cc(OC(F)(F)F)cnc23)cc1F
1.6

# ---- query compound ----
Name the recorded solubility kinetic for N#Cc1ccc(-c2n[nH]c3cc(OC(F)(F)F)ccc23)cc1 .
4.8

====

Assay: Permeability in Sprague-Dawley rat skin
Format: ADME, Zone of skin
Conditions: read-out: permeability (converted)
Property label: Papp (×10⁻⁶ cm/s)
One number for each entry, in ×10⁻⁶ cm/s.

Looking for the measured Papp of Fc1ccc(Nc2n[nH]c3cc(OC(F)(F)F)cnc23)cc1F , can you help?
0.00333

====

Target: Transient receptor potential cation channel subfamily A member 1 (Homo sapiens, UniProt O75762)
Sequence (O75762 whole entry): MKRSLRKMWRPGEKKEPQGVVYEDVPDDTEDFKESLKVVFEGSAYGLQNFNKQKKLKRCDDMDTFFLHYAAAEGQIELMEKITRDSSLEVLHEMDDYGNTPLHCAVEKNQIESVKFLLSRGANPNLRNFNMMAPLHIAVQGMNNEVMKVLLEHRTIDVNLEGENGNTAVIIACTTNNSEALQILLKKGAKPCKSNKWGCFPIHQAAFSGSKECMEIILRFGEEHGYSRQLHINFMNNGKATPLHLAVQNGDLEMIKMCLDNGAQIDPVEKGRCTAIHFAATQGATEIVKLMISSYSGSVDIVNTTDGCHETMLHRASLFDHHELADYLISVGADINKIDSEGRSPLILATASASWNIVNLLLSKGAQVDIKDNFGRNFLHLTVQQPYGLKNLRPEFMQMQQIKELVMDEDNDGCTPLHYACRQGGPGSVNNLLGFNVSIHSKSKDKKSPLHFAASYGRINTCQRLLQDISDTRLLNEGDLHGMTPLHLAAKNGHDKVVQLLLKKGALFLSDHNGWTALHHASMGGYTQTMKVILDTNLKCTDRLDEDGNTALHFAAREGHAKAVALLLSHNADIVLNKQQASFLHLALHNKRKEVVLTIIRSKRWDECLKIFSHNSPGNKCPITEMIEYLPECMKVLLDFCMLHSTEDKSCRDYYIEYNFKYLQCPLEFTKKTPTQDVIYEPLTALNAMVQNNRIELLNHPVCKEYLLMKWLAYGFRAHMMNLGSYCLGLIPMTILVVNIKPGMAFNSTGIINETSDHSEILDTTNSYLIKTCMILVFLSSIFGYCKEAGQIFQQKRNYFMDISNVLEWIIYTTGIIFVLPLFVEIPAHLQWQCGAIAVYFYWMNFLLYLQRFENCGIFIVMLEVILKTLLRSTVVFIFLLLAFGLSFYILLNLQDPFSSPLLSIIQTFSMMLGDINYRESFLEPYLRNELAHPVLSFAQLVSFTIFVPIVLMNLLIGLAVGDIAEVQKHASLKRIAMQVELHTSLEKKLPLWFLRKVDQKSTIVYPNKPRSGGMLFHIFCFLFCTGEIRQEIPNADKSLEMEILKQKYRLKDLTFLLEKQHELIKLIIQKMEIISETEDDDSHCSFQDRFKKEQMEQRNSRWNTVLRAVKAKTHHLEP
Assay: Inhibition of full length human TRPA1 at a holding potential of 15 mV measured after 1 min by PatchXpress electrophysiology assay
Flag rule - IC50 less than 400 nM flags True; the remaining entries get False.

Would you please look over these solved cases?
CN(c1ccc(Cl)nc1)c1n[nH]c2cc(C(F)(F)F)ccc12
False
FC(F)(F)c1ccc2c(Nc3ccc(Cl)nc3)n[nH]c2c1
False
Fc1ccc(Nc2n[nH]c3cc(Cl)ccc23)cc1F
True
FC(F)(F)c1ccc2c(Nc3ccc(C(F)(F)F)nc3)n[nH]c2c1
False
N#Cc1ccc(-c2n[nH]c3cc(OC(F)(F)F)ccc23)s1
True

Strictly below 400 nM: is that where IC50 of Fc1ccc(-c2n[nH]c3cc(OC(F)(F)F)cnc23)cc1 sits?
True

What do we get for Fc1ccc(-c2n[nH]c3cc(NC4CCN(CC5CC5)CC4)cnc23)cc1 ?
False

Moving on to Clc1ccc(Nc2n[nH]c3ccccc23)cc1
False

Fc1ccc(Nc2n[nH]c3cc(C(F)(F)F)cnc23)cc1F , same question.
True

Another compound: CN(c1ccc(Cl)nc1)c1nn(C)c2cc(C(F)(F)F)ccc12
False

Please answer likewise for Cn1nc(Nc2ccc(Cl)nc2)c2ccc(C(F)(F)F)cc21
False

====

Target: Transient receptor potential cation channel subfamily A member 1 (Rattus norvegicus)
Assay: Inhibition of full length rat TRPA1 at a holding potential of 15 mV measured after 1 min by PatchXpress electrophysiology assay
Please provide measured IC50 for the entries that follow.
Numbers only, in µM.

Worked set:
Fc1ccc(-c2n[nH]c3cc(OC(F)(F)F)cnc23)cc1F
0.128
Fc1ccc2[nH]c(-c3n[nH]c4cc(OC(F)(F)F)ccc34)cc2c1
0.116

Please turn your attention to the following entry.
Data request, read-out IC50, for N#Cc1ccc(-c2n[nH]c3cc(OC(F)(F)F)ccc23)s1
0.08

====

Target: Transient receptor potential cation channel subfamily A member 1 (Homo sapiens, UniProt O75762)
Experiment: Inhibition of full length human TRPA1 at a holding potential of 15 mV measured after 1 min by PatchXpress electrophysiology assay
pIC50: −log10 of the molar value.
Record satisfied whenever pIC50 is at 7 or higher; record not satisfied when lower.

The examples below pair each entry with its known result.
Fc1ccc(Nc2n[nH]c3cc(-c4ccc(F)c(F)c4)ccc23)cc1F
not satisfied
Fc1ccc(Nc2n[nH]c3cc(C(F)(F)F)ccc23)cc1F
satisfied
Fc1ccc(Nc2n[nH]c3cc(-c4ccccc4OC(F)(F)F)ccc23)cc1F
not satisfied
COCCNC(=O)c1ccc2c(-c3ccc(C#N)cc3)n[nH]c2c1
not satisfied
Fc1ccc(Nc2n[nH]c3cc(OC(F)(F)F)cnc23)cc1F
satisfied
Fc1ccc(-c2n[nH]c3cc(C(F)(F)F)ccc23)cc1F
not satisfied
Fc1ccc(Nc2n[nH]c3cc(C(F)(F)F)ncc23)cc1F
not satisfied
Fc1ccc(Nc2n[nH]c3cc(OC(F)(F)F)cnc23)nc1
not satisfied
N#Cc1ccc(-c2n[nH]c3cc(OC(F)(F)F)ccc23)cc1
not satisfied
FC(F)(F)c1ccc2c(Nc3ccc(Cl)cc3)n[nH]c2c1
satisfied

Would you say Fc1ccc(-c2n[nH]c3cc(C(F)(F)F)cnc23)cc1F shows pIC50 at minimum 7?
not satisfied

Now the molecule N#Cc1ccc(-c2n[nH]c3cc(OC(F)(F)F)ccc23)cn1
not satisfied

Ok, now Fc1ccc2[nH]c(-c3n[nH]c4cc(OC(F)(F)F)ccc34)cc2c1
not satisfied
